B1: minF1; a variant is named by its letters at N, in order (parent)
chain: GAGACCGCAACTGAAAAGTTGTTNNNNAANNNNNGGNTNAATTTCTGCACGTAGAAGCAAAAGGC

Variants of: B1
Assay: fraction ligated after 30 min (ligated reads / total reads); higher = more ligase activity
Conditions: with F1*subA RNA substrate (template-directed ligation), 42 °C
Listing of entries alongside the reported fraction ligated.

Before answering, review these 5 worked examples.
| variant-designation | readout-label | readout-value |
| --- | --- | --- |
| ATAGATGGAGT G35T A40G | fraction ligated | 0.0113 |
| TCAGTGGATTG | fraction ligated | 0.0102 |
| ATCATGGATGT A40G | fraction ligated | 0.0479 |
| ATAATGGTGTG | fraction ligated | 0.00284 |
| ACAAGGATGTG | fraction ligated | 0.00477 |

q: Give the reported fraction ligated for this variant. ATCGAGGATGT
a: 0.004

q: Give the reported fraction ligated for this variant. ATAAGGATGTG A29T
a: 0.0199
